target: human CCR2 (Homo sapiens, UniProt P41597); construct: expressed in transfected cells; host or cells: Ba/F3 cells (membrane preparation); experiment: CCR2 Membrane Binding Assay (SPA radio-ligand binding, 125I-rhMCP-1); details: membranes from Ba/F3 cells transfected with human CCR2; 0.03 nM 125I-rhMCP-1; class symbols
Sequence (P41597 whole entry): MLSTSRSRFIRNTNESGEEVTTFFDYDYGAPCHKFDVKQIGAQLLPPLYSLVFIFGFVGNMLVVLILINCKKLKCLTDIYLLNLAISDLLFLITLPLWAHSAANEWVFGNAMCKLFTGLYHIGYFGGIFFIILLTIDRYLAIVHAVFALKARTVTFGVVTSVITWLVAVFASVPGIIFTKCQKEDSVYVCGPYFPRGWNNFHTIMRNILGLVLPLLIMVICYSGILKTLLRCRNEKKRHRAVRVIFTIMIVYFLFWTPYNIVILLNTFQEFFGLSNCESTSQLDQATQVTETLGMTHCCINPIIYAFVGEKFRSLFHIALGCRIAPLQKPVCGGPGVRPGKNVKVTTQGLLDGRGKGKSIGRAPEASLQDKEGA
Collected IC50 values appear next to each entry.

# example entries with known answers
1. COC(=O)[C@H]1CC[C@@H](N2C[C@@H]3[C@H](C2)[C@H]3C(=O)NCC(=O)Nc2cccc(C(F)(F)F)c2)CC1; < 50 nM
2. O=C(CNC(=O)[C@H]1[C@@H]2CN(C3CCCC3)C[C@@H]21)Nc1cccc(C(F)(F)F)c1; 51 to 200 nM
3. O=C([C@H]1[C@@H]2CN([C@H]3CC[C@@H](c4ccccc4)CC3)C[C@@H]21)N1CCC(c2cccc(C(F)(F)F)c2)C1 (stereo partly drawn) [Compound 71]; < 50 nM
4. O=C(CNC(=O)[C@H]1[C@@H]2CN([C@H]3CC[C@@H](c4cnc(O)nc4O)CC3)C[C@@H]21)Nc1cccc(C(F)(F)F)c1; 51 to 200 nM
5. O=C(CNC(=O)[C@H]1[C@@H]2CN([C@H]3CC[C@@H](c4cccs4)CC3)C[C@@H]21)Nc1cccc(C(F)(F)F)c1; < 50 nM

Now look at this entry.
Incoming: Which value of IC50 has been reported for `O=C(CNC(=O)[C@H]1[C@@H]2CN([C@H]3CC[C@H](c4ccncc4)CC3)C[C@@H]21)Nc1cccc(C(F)(F)F)c1` in the records?
Outgoing: 201 to 700 nM

----------
Form field: IC50 (one value per entry).
molecular target: human CCR2 (Homo sapiens, UniProt P41597); construct: expressed in transfected cells; host or cells: Ba/F3 cells (membrane preparation); experiment: CCR2 Membrane Binding Assay (SPA radio-ligand binding, 125I-rhMCP-1); settings: membranes from Ba/F3 cells transfected with human CCR2; 0.03 nM 125I-rhMCP-1; class symbols

Incoming: IC50 for `O=C(CNC(=O)[C@H]1[C@@H]2CN([C@H]3CC[C@@H](c4ccc(OCc5ccccc5)cc4)CC3)C[C@@H]21)Nc1cccc(C(F)(F)F)c1` ?
Outgoing: < 0.05 µM

Incoming: Param item: O=C(CNC(=O)[C@H]1[C@@H]2CN(C3CC[C@@H](c4ccccc4)C3)C[C@@H]21)Nc1cccc(C(F)(F)F)c1 (stereo partly drawn)
Outgoing: 0.201 to 0.7 µM

Incoming: Next compound up: O=C(NCCc1cccc(C(F)(F)F)c1)C1[C@H]2CN(C3CCCOC3)C[C@@H]12 (stereo partly drawn)
Outgoing: 0.201 to 0.7 µM

Incoming: // next record `CC(C)(C)OC(=O)[C@H]1CC[C@@H](N2C[C@@H]3[C@H](C2)[C@H]3C(=O)NCC(=O)Nc2cccc(C(F)(F)F)c2)CC1`
Outgoing: 0.201 to 0.7 µM

Incoming: // same read-out, input: CC1(C)CCCC(N2C[C@@H]3[C@H](C2)[C@H]3C(=O)NCC(=O)Nc2cccc(C(F)(F)F)c2)C1 (stereo partly drawn)
Outgoing: 0.201 to 0.7 µM

Incoming: Cool, now `O=C(CNC(=O)[C@H]1[C@@H]2CN([C@H]3CC[C@@H](c4cnc(O)nc4)CC3)C[C@@H]21)Nc1cccc(C(F)(F)F)c1`
Outgoing: 0.201 to 0.7 µM

----------
target: human CCR2 (Homo sapiens, UniProt P41597); construct: expressed in transfected cells; host or cells: Ba/F3 cells (membrane preparation); experiment: CCR2 Membrane Binding Assay (SPA radio-ligand binding, 125I-rhMCP-1); settings: membranes from Ba/F3 cells transfected with human CCR2; 0.03 nM 125I-rhMCP-1; class symbols
pIC50: −log10 of the molar value.
quantityName: pIC50

Solved cases (5 shown):
1. O=C(NC1Cc2ccc(Br)cc2C1)[C@H]1[C@@H]2CN([C@H]3CC[C@@H](c4ccccc4)CC3)C[C@@H]21 (stereo partly drawn); 6.70 to 7.29
2. O=C(CNC(=O)[C@H]1[C@@H]2CN(C3CCC(O)(c4cncs4)CC3)C[C@@H]21)Nc1cccc(C(F)(F)F)c1 (stereo partly drawn) [Compound 123]; 6.15 to 6.70
3. O=C(CNC(=O)[C@H]1[C@@H]2CN(C3CCCCC3)C[C@@H]21)Nc1cccc(C(F)(F)F)c1; 6.70 to 7.29
4. CN(C(=O)[C@H]1[C@@H]2CN([C@H]3CC[C@@H](c4ccccc4)CC3)C[C@@H]21)[C@H]1CCN(c2ncc(C(F)(F)F)cn2)C1; 6.15 to 6.70
5. O=C([C@H]1[C@@H]2CN([C@H]3CC[C@@H](c4ccccc4)CC3)C[C@@H]21)N1CC[C@H](Nc2nccc(C(F)(F)F)n2)C1; 6.70 to 7.29

Consider the additional compound presented here.
Incoming: # get_value(readout='pIC50', item= `O=C([C@H]1[C@@H]2CN([C@H]3CC[C@@H](c4ccccc4)CC3)C[C@@H]21)N1CC[C@@H](Nc2nccc(C(F)(F)F)n2)C1` )
Outgoing: 6.70 to 7.29

----------
# IC50 annotations
molecular target: human CCR2 (Homo sapiens, UniProt P41597); construct: expressed in transfected cells; host or cells: Ba/F3 cells (membrane preparation); experiment: CCR2 Membrane Binding Assay (SPA radio-ligand binding, 125I-rhMCP-1); settings: membranes from Ba/F3 cells transfected with human CCR2; 0.03 nM 125I-rhMCP-1; class symbols

Incoming: Which IC50 reading was recorded for the compound `O=C(CNC(=O)[C@H]1[C@@H]2CN(C3CC3)C[C@@H]21)Nc1cccc(C(F)(F)F)c1` ?
Outgoing: 201 to 700 nM

Incoming: Another compound to look at: CC1CCCCC1N1C[C@@H]2[C@H](C1)[C@H]2C(=O)NCC(=O)Nc1cccc(C(F)(F)F)c1 (stereo partly drawn)
Outgoing: 51 to 200 nM

Incoming: Further, for `FC(F)(F)c1cccc(CN(Cc2cccc(C(F)(F)F)c2)c2nnc([C@H]3[C@@H]4CN([C@H]5CC[C@@H](c6ccccc6)CC5)C[C@@H]43)o2)c1` ?
Outgoing: 201 to 700 nM

Incoming: And for `COc1ncc([C@H]2CC[C@@H](N3C[C@@H]4[C@H](C3)[C@H]4C(=O)NCC(=O)Nc3cccc(C(F)(F)F)c3)CC2)cn1` ?
Outgoing: < 50 nM

----------
target: human CCR2 (Homo sapiens); construct: expressed in transfected cells; host or cells: Ba/F3 cells (membrane preparation); experiment: CCR2 Membrane Binding Assay (SPA radio-ligand binding, 125I-rhMCP-1); conditions: membranes from Ba/F3 cells transfected with human CCR2; 0.03 nM 125I-rhMCP-1; class symbols
pIC50: −log10 of the molar value.
Reported values of pIC50 for individual entries

These recorded examples may help you get a feel for the data.
1) O=C(CNC(=O)[C@H]1[C@@H]2CN(C3CCCOC3)C[C@@H]21)Nc1cccc(C(F)(F)F)c1 (stereo partly drawn); 6.70 to 7.29
2) CC(C)C1CCC(N2C[C@@H]3[C@H](C2)[C@H]3C(=O)NCC(=O)Nc2cccc(C(F)(F)F)c2)CC1 (stereo partly drawn); 6.15 to 6.70
3) Cc1[nH]c2c(C(F)(F)F)cccc2c1CCNC(=O)[C@H]1[C@@H]2CN([C@H]3CC[C@@H](c4ccccc4)CC3)C[C@@H]21; 6.15 to 6.70
4) O=C(CNC(=O)[C@H]1[C@@H]2CN([C@H]3CC[C@H](c4cccs4)CC3)C[C@@H]21)Nc1cccc(C(F)(F)F)c1; 6.15 to 6.70
5) N#Cc1cccc(C2CCN(C(=O)[C@H]3[C@@H]4CN([C@H]5CC[C@@H](c6ccccc6)CC5)C[C@@H]43)C2)c1 (stereo partly drawn); 6.70 to 7.29

Now consider the entry below.
Incoming: Value wanted: pIC50 (human CCR2 (Homo sapiens)) of entry `O=C(CNC(=O)[C@H]1[C@@H]2CN(C3CCC3)C[C@@H]21)Nc1cccc(C(F)(F)F)c1`
Outgoing: 6.15 to 6.70

----------
biological target: human CCR2 (Homo sapiens, UniProt P41597); construct: expressed in transfected cells; host or cells: Ba/F3 cells (membrane preparation); test: CCR2 Membrane Binding Assay (SPA radio-ligand binding, 125I-rhMCP-1); conditions: membranes from Ba/F3 cells transfected with human CCR2; 0.03 nM 125I-rhMCP-1; class symbols
pIC50: −log10 of the molar value.
# pIC50 per entry

Worked cases, pIC50 given:
1. O=C([C@H]1[C@@H]2CN([C@H]3CC[C@@H](c4ccccc4)CC3)C[C@@H]21)N1CCC(Nc2ncc(C(F)(F)F)cn2)C1 (stereo partly drawn); 6.15 to 6.70
2. O=C(CNC(=O)[C@H]1[C@@H]2CN([C@H]3CC[C@@H](C4Cc5ccccc5O4)CC3)C[C@@H]21)Nc1cccc(C(F)(F)F)c1 (stereo partly drawn); 6.15 to 6.70
3. O=C(NCCCc1cccc(C(F)(F)F)c1)[C@H]1[C@@H]2CN([C@H]3CC[C@@H](c4ccccc4)CC3)C[C@@H]21; 6.70 to 7.29

Incoming: Returns the measured pIC50 for the input molecule. Input: O=C1CC2CC(N3C[C@@H]4[C@H](C3)[C@H]4C(=O)NCC(=O)Nc3cccc(C(F)(F)F)c3)CC2C1 (stereo partly drawn)
Outgoing: 6.15 to 6.70

Incoming: Also, O=C(CNC(=O)[C@H]1[C@@H]2CN(C3CCC(O)(c4cncs4)CC3)C[C@@H]21)Nc1cccc(C(F)(F)F)c1 (stereo partly drawn) [Compound 121] please.
Outgoing: > 7.30

Incoming: And for `O=C(CNC(=O)[C@H]1[C@@H]2CN([C@H]3CC[C@H](c4ccc(OCc5ccccc5)cc4)CC3)C[C@@H]21)Nc1cccc(C(F)(F)F)c1` ?
Outgoing: 6.15 to 6.70
